Every entry's value here was drawn from ChEMBL document CHEMBL1799960.

Target: Ectonucleotide pyrophosphatase/phosphodiesterase family member 1 (Homo sapiens)
Sequence (P22413 whole entry): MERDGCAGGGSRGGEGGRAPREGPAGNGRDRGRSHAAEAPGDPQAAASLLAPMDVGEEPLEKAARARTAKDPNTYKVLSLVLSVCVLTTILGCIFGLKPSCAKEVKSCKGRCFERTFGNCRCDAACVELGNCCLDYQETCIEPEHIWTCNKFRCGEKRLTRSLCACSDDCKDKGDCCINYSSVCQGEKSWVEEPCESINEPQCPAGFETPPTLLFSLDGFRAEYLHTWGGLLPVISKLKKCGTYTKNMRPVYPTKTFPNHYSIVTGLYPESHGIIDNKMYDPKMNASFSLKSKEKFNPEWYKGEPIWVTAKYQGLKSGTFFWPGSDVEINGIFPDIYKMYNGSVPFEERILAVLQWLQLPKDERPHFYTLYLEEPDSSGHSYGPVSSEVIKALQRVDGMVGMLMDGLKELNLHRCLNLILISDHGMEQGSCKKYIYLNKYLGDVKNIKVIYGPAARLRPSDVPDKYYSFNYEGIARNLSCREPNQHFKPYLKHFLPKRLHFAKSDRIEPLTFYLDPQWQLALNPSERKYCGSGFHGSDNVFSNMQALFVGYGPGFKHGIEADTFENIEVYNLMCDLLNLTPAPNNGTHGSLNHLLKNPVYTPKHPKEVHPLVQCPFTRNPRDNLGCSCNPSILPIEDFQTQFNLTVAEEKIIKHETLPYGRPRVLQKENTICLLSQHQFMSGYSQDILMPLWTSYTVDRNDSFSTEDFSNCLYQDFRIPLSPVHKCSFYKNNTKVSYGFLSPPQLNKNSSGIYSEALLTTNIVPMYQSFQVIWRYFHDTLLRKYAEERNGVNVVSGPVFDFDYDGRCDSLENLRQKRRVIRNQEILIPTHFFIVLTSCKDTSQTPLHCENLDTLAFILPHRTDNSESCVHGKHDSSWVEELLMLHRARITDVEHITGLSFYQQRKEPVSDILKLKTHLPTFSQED
Test: Inhibition of human NPP1 expressed in COS7 cells assessed as production of p-nitrophenol using pnp-TMP as the substrate after 15 mins […]
Value kind: pIC50
Give only the number. pIC50 is defined as minus log10 of concentration in molar units.

Answered examples (3):
{"columns": ["Structure string", "Target", "pIC50"],
 "data": [
  ["BP(=O)(OP(=O)(O)CP(=O)(O)OC[C@H]1O[C@@H](n2cnc3c(N)ncnc32)[C@H](O)[C@@H]1O)OP(=O)(O)CP(=O)(O)OC[C@H]1O[C@@H](n2cnc3c(N)ncnc32)[C@H](O)[C@@H]1O", "Ectonucleotide pyrophosphatase/phosphodiesterase family member 1 (Homo sapiens)", 4.20],
  ["Nc1ncnc2c1ncn2[C@@H]1O[C@H](COP(=O)(O)CP(=O)(O)OP(=O)(O)CP(=O)(O)OC[C@H]2O[C@@H](n3cnc4c(N)ncnc43)[C@H](O)[C@@H]2O)[C@@H](O)[C@H]1O", "Ectonucleotide pyrophosphatase/phosphodiesterase family member 1 (Homo sapiens)", 4.48],
  ["Nc1ncnc2c1ncn2[C@H]1C[C@H](O)[C@@H](COP(=O)(O)CP(=O)(O)OP(=O)(O)CP(=O)(O)OC[C@H]2O[C@@H](n3cnc4c(N)ncnc43)C[C@@H]2O)O1", "Ectonucleotide pyrophosphatase/phosphodiesterase family member 1 (Homo sapiens)", 4.30]
]}

As a next step, examine the compound that follows.
[in] Field request: pIC50 | item: `BP(=O)(OP(=O)(O)CP(=O)(O)OC[C@H]1O[C@@H](n2cnc3c(N)ncnc32)C[C@@H]1O)OP(=O)(O)CP(=O)(O)OC[C@H]1O[C@@H](n2cnc3c(N)ncnc32)C[C@@H]1O`
[out] 4.89
